Please go through the items and note down their shrunken log2 fold change.
Tested on: Escherichia coli TOP10;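 note: peptides expressed intracellularly from a pBAD plasmid library in pooled LB shake-flask culture, induced with 0.3% L-arabinose, DNA abundance read by NGS, three biological replicates, DESeq2 with apeglm shrinkage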
experimental-details: shrunken log2 fold change of peptide-encoding DNA abundance (4.5 h post-induction vs induction); higher = less antimicrobial activity (less host growth inhibition)
protocol-conditions: time post-induction: 4.5 h; library: site-saturation at positions 5, 18, 19, 20
Answers are plain numbers.

These recorded examples may help you get a feel for the data.
RRIRVRPPRLPRPRPRPILCPRP    0.0143
RRIRSRPPRLPRPRPRPNSPPRP    -0.149
RRIRIRPPRLPRPRPRPMRFPRP    -0.0444
RRIRHRPPRLPRPRPRPCMVPRP    -0.342
RRIRWRPPRLPRPRPRPITTPRP    0.0992

Hi, could you look up shrunken log2 fold change for each item in my list?
1. RRIRCRPPRLPRPRPRPMMSPRP
2. RRIRTRPPRLPRPRPRPDAGPRP
3. RRIRQRPPRLPRPRPRPRAMPRP
4. RRIRFRPPRLPRPRPRPDQKPRP

1: -0.0652; 2: 0.11; 3: 0.0219; 4: -0.0128

Hi, could you look up shrunken log2 fold change for each item in my list?
1. RRIRIRPPRLPRPRPRPTCYPRP
2. RRIRWRPPRLPRPRPRPCAKPRP
3. RRIRERPPRLPRPRPRPTGAPRP

-0.266
-0.0723
0.316

Hi, could you look up shrunken log2 fold change for each item in my list?
1. RRIRVRPPRLPRPRPRPPVGPRP
2. RRIRERPPRLPRPRPRPTLSPRP
3. RRIRRRPPRLPRPRPRPCDGPRP
4. RRIRWRPPRLPRPRPRPQELPRP
5. RRIRGRPPRLPRPRPRPNKMPRP
6. RRIRLRPPRLPRPRPRPVMIPRP
7. RRIRLRPPRLPRPRPRPCHCPRP
8. RRIRQRPPRLPRPRPRPDLTPRP

1. 0.375
2. 0.0115
3. 0.0965
4. -0.0075
5. 0.162
6. -0.269
7. -0.0469
8. 0.00424

Hi, could you look up shrunken log2 fold change for each item in my list?
1. RRIRPRPPRLPRPRPRPMQVPRP
2. RRIRHRPPRLPRPRPRPPIFPRP
3. RRIRVRPPRLPRPRPRPGLIPRP
4. RRIRNRPPRLPRPRPRPKVDPRP
5. RRIRERPPRLPRPRPRPHLSPRP

1: -0.012; 2: -0.163; 3: -0.359; 4: 0.147; 5: -0.19

These data points were gathered from the supplement of paper PMC9112550.
